# Protocol Notes: Pharmacokinetic profile of netupitant in humans after a single oral dose
# Format: in vivo
# Cond: human, plasma; 450 mg oral, healthy volunteers, mean, N = 4

{"columns": ["Record Smiles", "half-life / h"],
 "data": [
  ["Cc1ccccc1-c1cc(N2CCN(C)CC2)ncc1N(C)C(=O)C(C)(C)c1cc(C(F)(F)F)cc(C(F)(F)F)c1", 59.7]
]}
